Molecular target: Cathepsin B (Bos taurus) (UniProt P07688)
Assay: The apparent second-order rate constant for inactivation of bovine cathepsin B enzyme. Apparent rate constant was determined from repeats of Kobs vs [I] using at least 5 values of [I].
# binarize k2/Ki: threshold 300 M⁻¹ s⁻¹ inclusive, high side criterion met, low side criterion not met

# smi, cat
records = [
    ("CC(=O)N[C@@H](Cc1ccccc1)C(=O)NNC(=O)OCCBr", "criterion not met"),
    ("CC(=O)N[C@@H](Cc1ccccc1)C(=O)NNC(N)=O", "criterion not met"),
    ("CC(=O)N[C@@H](Cc1ccccc1)C(=O)NNC(=O)Nc1ccc([N+](=O)[O-])cc1", "criterion not met"),
    ("CC(=O)N[C@@H](Cc1ccccc1)C(=O)NNC(=O)Oc1ccccc1", "criterion met"),
    ("CC(=O)N[C@@H](Cc1ccccc1)C(=O)NNC(=O)OCc1ccccc1", "criterion met"),
    ("CC(=O)N[C@@H](Cc1ccccc1)C(=O)NNC(=O)OCC(Cl)(Cl)Cl", "criterion met"),
    ("CC(=O)N[C@@H](Cc1ccccc1)C(=O)NNC(=O)OCCCl", "criterion not met"),
]
